Hi, quick share: literature pKi data for UniProt P30729, several sources combined.
Molecular target: UniProt P30729
Sequence (P30729 whole entry): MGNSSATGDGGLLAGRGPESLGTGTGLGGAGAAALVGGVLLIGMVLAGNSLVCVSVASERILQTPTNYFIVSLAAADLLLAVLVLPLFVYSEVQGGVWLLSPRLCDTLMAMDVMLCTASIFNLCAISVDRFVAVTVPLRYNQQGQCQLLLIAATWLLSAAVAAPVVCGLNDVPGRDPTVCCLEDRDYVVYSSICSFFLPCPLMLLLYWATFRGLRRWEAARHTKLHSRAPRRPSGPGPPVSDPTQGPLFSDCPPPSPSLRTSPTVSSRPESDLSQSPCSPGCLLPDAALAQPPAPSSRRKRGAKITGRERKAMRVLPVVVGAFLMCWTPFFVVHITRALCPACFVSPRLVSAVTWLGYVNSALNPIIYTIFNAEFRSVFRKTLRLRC
pKi: −log10 of the molar value.
reportedEndpoint: pKi

> print(dat)
                                   compound  operator  resultvalue
1                 N[C@H](CS(=O)(=O)O)C(=O)O         <         5.00
2  CCc1cc(Cl)c(OC)c(C(=O)NC[C@@H]2CCCN2CC)c1O         =         7.19
3     NC(CS(=O)O)C(=O)O (centres undefined)         <         5.00
4                         N[C@@H](CS)C(=O)O         <         5.00
5                    N[C@H](CCS(=O)O)C(=O)O         <         5.00
6  Cc1cccc(N2CCN(CCCOc3ccc4ccc(=O)[nH]c4c3)CC2)c1C         =         6.55
7  CN1CCN(CCCN2c3ccccc3Sc3ccc(S(=O)(=O)N(C)C)cc32)CC1         =         7.28
8  CC(C)=CCC[C@]1(C)[C@@H](CC=C(C)C)C[C@]2(CC=C(C)C)C(=O)C(CC=C(C)C)C(=O)[C@]1(C(=O)C(C)C)C2=O (some centres undefined)         <         5.00
9  CCN1CCC[C@H]1CNC(=O)c1c(O)c(Cl)cc(Cl)c1OC         =         6.63
